Below are IC50 measurements against Cyclin-dependent kinase 7 (Homo sapiens, UniProt P50613) drawn from the literature.

Reference set, count: 3
| Compound | Recorded measurement |
| --- | --- |
| N#Cc1sc2cnc(Nc3ccc(N4CCNCC4)cn3)cc2c1C1CCCC1 | 14.9 nM |
| CN(C)C/C=C/C(=O)Nc1ccc(C(=O)N[C@@H]2CC[C@H](Nc3ncc(Cl)c(-c4c[nH]c5ccccc45)n3)C2)cc1 (racemic) | 100 to 1000 nM |
| C=CC(=O)Nc1ccc(C(=O)Nc2n[nH]c3c2CN(C(=O)N[C@H](CN(C)C)c2ccccc2)C3(C)C)cc1OC | < 100 nM |

In: Answer with the recorded IC50 for the compound listed here: NS(=O)(=O)c1ccc(Nc2ncc3cc4n(c3n2)C2(CCCCC2)CC(=O)N4)cc1
Out: 200 nM

In: Answer with the recorded IC50 for the compound listed here: C=CC(=O)N1CCN(CC2(O)CCC[C@@H](Nc3ncc(Cl)c(-c4c[nH]c5ccccc45)n3)C2)CC1 (single isomer, unassigned)
Out: < 100 nM

* * *

Below are pIC50 measurements against Cyclin-dependent kinase 7 (Homo sapiens, UniProt P50613) drawn from the literature.
pIC50: −log10 of the molar value.

Reference set, count: 2
| Compound | pIC50 |
| --- | --- |
| CC(C)c1cnn2c(NCc3ccccc3NC(=O)c3ccc(NC(=O)/C=C/CN(C)C)cc3)nc(OC3CCN(C)CC3)nc12 | 6.00 to 7.00 |
| CN(C)C/C=C/C(=O)Nc1ccc(C(=O)N[C@H]2CCC[C@@H](Nc3ncc(Cl)c(-c4c[nH]c5ccccc45)n3)C2)nc1 | > 7.00 |

We now examine a further compound.
In: Enter pIC50 (test system Cyclin-dependent kinase 7 (Homo sapiens, UniProt P50613)) for CC(C(=O)Nc1cc(C2CC2)[nH]n1)c1ccc(-c2ccc(CNC(=O)/C=C/CN3CCOCC3)nc2)cc1 (single isomer, unassigned)
Out: 5.95

* * *

pIC50: −log10 of the molar value.
Below are pIC50 measurements against Cyclin-dependent kinase 7 (Homo sapiens) drawn from the literature.

Reference set, count: 5
| Compound | Tested target | pIC50 |
| --- | --- | --- |
| C=CC(=O)Nc1ccc(C(=O)NC2CCC(Nc3n[nH]c4c3CN(C(=O)N[C@H](CN(C)C)c3ccccc3)C4(C)C)CC2)cc1 (stereo partly shown) | Cyclin-dependent kinase 7 (Homo sapiens) | > 7.00 |
| C=CC(=O)Nc1ccc(C(=O)Nc2n[nH]c3c2CN(C(=O)N[C@H](CN(C)C)c2ccccc2)C32CCCCC2)cc1 | Cyclin-dependent kinase 7 (Homo sapiens) | 6.00 to 7.00 |
| CN(C)C/C=C/C(=O)N1CCC[C@@H](C(=O)Nc2cccc(Nc3ncc(Cl)c(-c4c[nH]c5ccccc45)n3)c2)C1 | Cyclin-dependent kinase 7 (Homo sapiens) | > 7.00 |
| CN(C)CC=CC(=O)N1CCC(CNC2CCC(Nc3ncc(Cl)c(-c4c[nH]c5ccccc45)n3)CC2)CC1 (stereo not shown) | Cyclin-dependent kinase 7 (Homo sapiens) | > 7.00 |
| N#Cc1cnc(NC2CCN(C(=O)c3ccc(N)cc3)CC2)nc1-c1c[nH]c2ccccc12 | Cyclin-dependent kinase 7 (Homo sapiens) | 6.00 to 7.00 |

In: Enter pIC50 (test system Cyclin-dependent kinase 7 (Homo sapiens)) for CN(C/C=C/C(=O)Nc1ccc(CN2CCC(Nc3ncc(Cl)c(-c4c[nH]c5ccccc45)n3)CC2)cc1)CC(=O)O
Out: > 7.00

In: Enter pIC50 (test system Cyclin-dependent kinase 7 (Homo sapiens)) for CCCn1cc(-c2ccnc(Nc3ccc(C)c(S(=O)(=O)N4CCOCC4)c3)n2)c2ccncc21
Out: 5.71

* * *

Below are pIC50 measurements against Cyclin-dependent kinase 7 (Homo sapiens, UniProt P50613) drawn from the literature.
pIC50: −log10 of the molar value.

Reference set, count: 6
| Compound | Experimental readout | Recorded measurement |
| --- | --- | --- |
| C=CC(=O)NCc1ccc(-c2ccc(C(C)C(=O)Nc3cc(C4CC4)[nH]n3)cc2)cc1 (single isomer, unassigned) | pIC50 | < 5.00 |
| Nc1ccc(C(=O)NC23CCCC(Nc4ncc(Cl)c(-c5c[nH]c6ccccc56)n4)(C2)C3)cc1 | pIC50 | 6.00 to 7.00 |
| O=C(N[C@@H]1CCC[C@H](Nc2ncc(Cl)c(-c3c[nH]c4ccccc34)n2)C1)C1CCN(C(=O)/C=C/CN2CCOCC2)CC1 | pIC50 | > 7.00 |
| C=CC(=O)N[C@H]1CCC[C@@H](Nc2ncc(Cl)c(-c3c[nH]c4ccccc34)n2)C1 | pIC50 | > 7.00 |
| CN(C)C(=O)c1sc2cnc(Nc3ccc(N4CCNCC4)cn3)cc2c1C1CCCCC1 | pIC50 | 5.48 |
| N#Cc1sc2cnc(Nc3ccc(N4CCNCC4)nc3)cc2c1C1CCCC1 | pIC50 | 7.27 |

We now examine a further compound.
In: Answer with the recorded pIC50 for the compound listed here: Nc1ccc(C(=O)N2CCC(Nc3ncc(Cl)c(-c4c[nH]c5ccccc45)n3)CC2)cc1F
Out: > 7.00

* * *

Below are IC50 measurements against Cyclin-dependent kinase 7 (Homo sapiens, UniProt P50613) drawn from the literature.

| Compound | IC50 |
| --- | --- |
| Cc1[nH]c2ccccc2c1-c1nc(NC2CCN(C(=O)c3ccc(NC(=O)/C=C/CN(C)C)cc3)CC2)ncc1Cl | < 100 nM |
| C=CC(=O)NC1(c2ccc(-c3ccc([C@H](C)C(=O)Nc4cc(C5CC5)[nH]n4)cc3)cn2)CC1 | 5450 nM |
| C=CC(=O)Nc1ccc(C(=O)N[C@@H]2CCC[C@@H](Nc3n[nH]c4c3CN(C(=O)N[C@H](CN(C)C)c3ccccc3)C4(C)C)C2)cc1 | < 100 nM |
| CN(C)C/C=C/C(=O)Nc1ccc(C(=O)Nc2cccc(Nc3ncc(Cl)c(-n4cnc5ccccc54)n3)c2)cc1 | 201 nM |

In: Enter IC50 (test system Cyclin-dependent kinase 7 (Homo sapiens, UniProt P50613)) for C=CC(=O)Nc1ccc(Nc2n[nH]c3c2CN(C(=O)N[C@H](CN(C)C)c2ccccc2)C3(C)C)cc1
Out: 100 to 1000 nM

In: Enter IC50 (test system Cyclin-dependent kinase 7 (Homo sapiens, UniProt P50613)) for CN(C)C/C=C/C(=O)Nc1ccc(CN2CC[C@@H](Nc3ncc(Cl)c(-c4c[nH]c5ccccc45)n3)C2)cc1
Out: < 100 nM

In: Enter IC50 (test system Cyclin-dependent kinase 7 (Homo sapiens, UniProt P50613)) for C=CC(=O)Nc1ccc(C(=O)Nc2cccc(Nc3n[nH]c4c3CN(C(=O)N[C@H](CN(C)C)c3ccccc3)C4(C)C)c2)cc1
Out: < 100 nM

In: Enter IC50 (test system Cyclin-dependent kinase 7 (Homo sapiens, UniProt P50613)) for C=CC(=O)Nc1cccc(C(=O)Nc2nn(C)c3c2CN(C(=O)N[C@H](CN(C)C)c2ccccc2)C3(C)C)c1
Out: < 100 nM

In: Enter IC50 (test system Cyclin-dependent kinase 7 (Homo sapiens, UniProt P50613)) for C=CC(=O)Nc1ccc(C(=O)Nc2cccc(Nc3n[nH]c4c3CN(C(=O)NCCN(C)C)C4(C)C)c2)cc1
Out: 100 to 1000 nM

* * *

Below are IC50 measurements against Cyclin-dependent kinase 7 (Homo sapiens, UniProt P50613) drawn from the literature.

Reference set, count: 5
| Compound | IC50 |
| --- | --- |
| CN(C)C/C=C/C(=O)Nc1ccc(C(=O)N[C@H]2C[C@@H](Nc3ncc(Cl)c(-c4c[nH]c5ccccc45)n3)CN(C)C2)cc1 (racemic) | < 100 nM |
| C=CC(=O)N1CCCC(CNC2CCC(Nc3ncc(Cl)c(-c4c[nH]c5ccccc45)n3)CC2)C1 (stereo not drawn) | < 100 nM |
| O=C(c1ccc(Nc2ncc3cc4n(c3n2)C2(CCCCC2)C(=O)NN4)cc1)N1CCOCC1 | > 1000 nM |
| CC(C)N1CCOc2c(F)cc(-c3nc(Nc4ccc(N5CCOCC5)cn4)ncc3F)cc21 | > 10000 nM |
| CCn1cc(-c2ccnc(Nc3cccc(S(N)(=O)=O)c3)n2)c2ccnc(Cl)c21 | > 10000 nM |

We now examine a further compound.
In: Enter IC50 (test system Cyclin-dependent kinase 7 (Homo sapiens, UniProt P50613)) for Cc1nc(Nc2cccc(NC(=O)c3ccc(NC(=O)/C=C/CN(C)C)cc3)c2)nc(-c2c[nH]c3ccccc23)c1C
Out: 1350 nM

* * *

Below are IC50 measurements against Cyclin-dependent kinase 7 (Homo sapiens, UniProt P50613) drawn from the literature.

| Compound | IC50 |
| --- | --- |
| C=CC(=O)Nc1ccc(C(=O)Nc2c3c(nn2C)C(C)(C)N(C(=O)N[C@H](CN(C)C)c2ccccc2)C3)c(OC)c1 | ≥ 1000 nM |

In: Enter IC50 (test system Cyclin-dependent kinase 7 (Homo sapiens, UniProt P50613)) for C=CC(=O)N1CCC(CN(C)[C@H]2CCC[C@@H](Nc3ncc(Cl)c(-c4c[nH]c5ccccc45)n3)C2)CC1
Out: < 100 nM

In: Enter IC50 (test system Cyclin-dependent kinase 7 (Homo sapiens, UniProt P50613)) for CN(C)C/C=C/C(=O)Nc1ccc(C(=O)N2CCC(Nc3ncc(C#N)c(-c4c[nH]c5ccccc45)n3)CC2)cc1
Out: < 100 nM

In: Enter IC50 (test system Cyclin-dependent kinase 7 (Homo sapiens, UniProt P50613)) for C=CC(=O)N1CCC[C@H]1C(=O)N[C@H]1CCC[C@@H](Nc2ncc(Cl)c(-c3c[nH]c4ccccc34)n2)C1
Out: < 100 nM

In: Enter IC50 (test system Cyclin-dependent kinase 7 (Homo sapiens, UniProt P50613)) for C=CC(=O)N1CCC(CN2CCC(Nc3ncc(Cl)c(-c4c[nH]c5ccccc45)n3)CC2)CC1
Out: < 100 nM

In: Enter IC50 (test system Cyclin-dependent kinase 7 (Homo sapiens, UniProt P50613)) for CC(C)c1cnn2c(NCc3ccccc3NCc3ccc(NC(=O)/C=C/CN(C)C)cc3)nc(OC3CCN(C)CC3)nc12
Out: < 100 nM
